Recorded values, source patent US20240058315A1.

target: UniProt:P13569; experiment: in vitro EC50 against the wild type CFTR channel
Measured Parameter: pEC50
Formally, pEC50 is defined as -log10 of the concentration c, with c in mol/L.

Exam item: Query: pEC50; subject: COc1nc(C(=O)NC[C@](C)(O)C(F)(F)F)c(N)cc1C(F)(F)F (single isomer, unassigned) [Example 5]
Marked response: 7.14

----------
molecular target: ΔF508-CFTR (Homo sapiens (Human), UniProt P13569, DEL508-508); experiment: CFTR potentiator assays (membrane potential, IonWorks Quattro, Ussing chamber ion transport); conditions: CFTR EC50 in 'the data measurements described above'; which of the potentiator assays is not stated
Sequence (P13569 other isoform, or with tags, fused parts or gaps del F508-F508): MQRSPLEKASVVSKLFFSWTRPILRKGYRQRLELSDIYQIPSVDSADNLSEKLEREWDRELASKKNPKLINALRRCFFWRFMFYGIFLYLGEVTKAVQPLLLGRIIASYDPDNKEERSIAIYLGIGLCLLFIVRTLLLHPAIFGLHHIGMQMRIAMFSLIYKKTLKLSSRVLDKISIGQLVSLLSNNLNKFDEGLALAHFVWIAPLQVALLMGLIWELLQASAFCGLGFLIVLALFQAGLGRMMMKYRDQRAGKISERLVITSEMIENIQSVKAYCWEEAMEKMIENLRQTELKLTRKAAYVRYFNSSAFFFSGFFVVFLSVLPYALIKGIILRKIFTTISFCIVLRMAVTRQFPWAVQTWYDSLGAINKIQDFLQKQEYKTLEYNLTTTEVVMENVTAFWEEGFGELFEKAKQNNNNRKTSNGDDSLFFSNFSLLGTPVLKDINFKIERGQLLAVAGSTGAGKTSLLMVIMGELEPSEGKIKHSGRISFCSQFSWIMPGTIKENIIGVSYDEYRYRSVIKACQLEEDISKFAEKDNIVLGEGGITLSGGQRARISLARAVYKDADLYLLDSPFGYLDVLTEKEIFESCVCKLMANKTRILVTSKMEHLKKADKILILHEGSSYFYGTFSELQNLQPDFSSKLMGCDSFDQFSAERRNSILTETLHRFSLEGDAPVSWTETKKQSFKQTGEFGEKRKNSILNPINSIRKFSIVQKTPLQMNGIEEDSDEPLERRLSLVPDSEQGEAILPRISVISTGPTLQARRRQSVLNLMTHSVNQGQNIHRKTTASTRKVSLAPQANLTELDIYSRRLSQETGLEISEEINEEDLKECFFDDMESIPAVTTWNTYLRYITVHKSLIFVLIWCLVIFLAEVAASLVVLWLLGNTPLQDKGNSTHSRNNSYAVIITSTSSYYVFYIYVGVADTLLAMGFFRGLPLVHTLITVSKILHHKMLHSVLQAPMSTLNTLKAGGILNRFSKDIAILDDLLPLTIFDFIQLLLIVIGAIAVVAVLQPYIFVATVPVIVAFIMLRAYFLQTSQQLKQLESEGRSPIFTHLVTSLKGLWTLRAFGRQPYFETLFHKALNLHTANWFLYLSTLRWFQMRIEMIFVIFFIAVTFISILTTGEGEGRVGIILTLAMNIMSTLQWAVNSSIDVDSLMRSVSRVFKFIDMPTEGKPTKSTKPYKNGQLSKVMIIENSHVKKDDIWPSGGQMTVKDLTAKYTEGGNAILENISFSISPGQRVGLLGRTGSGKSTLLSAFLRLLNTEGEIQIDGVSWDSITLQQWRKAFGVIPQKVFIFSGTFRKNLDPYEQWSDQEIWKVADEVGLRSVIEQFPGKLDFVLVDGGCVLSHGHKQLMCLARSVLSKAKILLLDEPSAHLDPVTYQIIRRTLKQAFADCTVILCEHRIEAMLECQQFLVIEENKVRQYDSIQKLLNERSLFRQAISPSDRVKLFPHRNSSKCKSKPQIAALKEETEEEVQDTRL
EC50 for assorted compounds
// return numeric value only (unit: nM, not printed)

Field: example entries. Status: answers known.
Compound: C[C@@](O)(CNC(=O)c1nc(C(F)(F)F)c(C(F)(F)F)cc1N)C(F)(F)F
EC50 / nM: 10
--
Compound: C[C@](O)(CNC(=O)c1nc(C(F)(F)F)c(C(F)(F)F)cc1N)C(F)(F)F
EC50 / nM: 8

Exam item: Lab note: need EC50 for COc1nc(C(=O)NCC(O)C(F)(F)F)c(N)cc1C(F)(F)F (stereo not drawn) on ΔF508-CFTR (Homo sapiens (Human), UniProt P13569, DEL508-508), anyone have it?
Marked response: 35

Exam item: Check COc1nc(C(=O)NCC(C)(O)C(F)(F)F)c(N)cc1C(F)(F)F (racemic) too.
Marked response: 76

Exam item: # iterate: Cc1ccc(-c2nc(C(=O)NCC(C)(O)C(F)(F)F)c(N)cc2C(F)(F)F)cn1 (single isomer, unassigned)
Marked response: 51

Exam item: Now try Cc1ccc(-c2nc(C(=O)NCC(O)(C(F)(F)F)C(F)(F)F)c(N)cc2C(F)(F)F)cn1 .
Marked response: 115

Exam item: Let us now turn to CC(O)(CNC(=O)c1nc(-c2ccc(Cl)cc2Cl)c(C(F)(F)F)cc1N)C(F)(F)F (single isomer, unassigned) [Example 9]
Marked response: 90

Exam item: Next record, please: CC(O)(CNC(=O)c1nc(-c2ccc(Cl)cc2Cl)c(C(F)(F)F)cc1N)C(F)(F)F (single isomer, unassigned) [Example 10]
Marked response: 112

Exam item: Another compound to check: CC(C)(O)CNC(=O)c1nc(-c2ccc(F)cc2)c(C(F)(F)F)cc1N
Marked response: 37

Exam item: Try this compound too: C[C@@](O)(CNC(=O)c1nc(Br)c(C(F)(F)F)cc1N)C(F)(F)F
Marked response: 15

Exam item: Can you check COc1nc(C(=O)NC[C@@](C)(O)C(F)(F)F)c(N)cc1C(F)(F)F (single isomer, unassigned) next?
Marked response: 426

Exam item: Another compound: C[C@@](O)(CNC(=O)c1nc(-c2ccc(F)cc2)c(C(F)(F)F)cc1N)C(F)(F)F
Marked response: 60

Exam item: Item: C[C@](O)(CNC(=O)c1nc(-c2ccc(F)cc2)c(C(F)(F)F)cc1N)C(F)(F)F
Marked response: 40

Exam item: Again, but for COc1nc(C(=O)NC[C@](C)(O)C(F)(F)F)c(N)cc1C(F)(F)F (single isomer, unassigned)
Marked response: 50

Exam item: How about C[C@](O)(CNC(=O)c1nc(Br)c(C(F)(F)F)cc1N)C(F)(F)F ?
Marked response: 55
